experiment: Muscle losmapimod concentrations in needle biopsies; format: in vivo; conditions: human, po, 15 mg BID, 15 mg orally BID, Wk16 biopsy, read-out: Concentrations in muscles at Wk16
quantity_kind: concentration at 16 weeks

Enquiry: Record request: concentration at 16 weeks value, item `Cc1c(F)cc(C(=O)NC2CC2)cc1-c1ccc(C(=O)NCC(C)(C)C)cn1`
Return: 61 ng/g

* * *

assay: Muscle losmapimod concentrations in needle biopsies; type: in vivo; details: human, po, 15 mg BID, 15 mg orally BID, Wk36 biopsy, read-out: Concentrations in muscles at Wk36
quantity_kind: concentration at 36 weeks (ng/g)
Quick reminder: number only, in ng/g, skip the unit.

Enquiry: // concentration at 36 weeks lookup, key: `Cc1c(F)cc(C(=O)NC2CC2)cc1-c1ccc(C(=O)NCC(C)(C)C)cn1`
Return: 91.1

From: patent US20240342148A1
